Values compiled from PubChem BioAssay AID504333.

# target_system: Bromodomain adjacent to zinc finger domain protein 2B (Homo sapiens) (UniProt Q9UIF8)
# Sequence (Q9UIF8 whole entry, looked up, the tested form may be a part): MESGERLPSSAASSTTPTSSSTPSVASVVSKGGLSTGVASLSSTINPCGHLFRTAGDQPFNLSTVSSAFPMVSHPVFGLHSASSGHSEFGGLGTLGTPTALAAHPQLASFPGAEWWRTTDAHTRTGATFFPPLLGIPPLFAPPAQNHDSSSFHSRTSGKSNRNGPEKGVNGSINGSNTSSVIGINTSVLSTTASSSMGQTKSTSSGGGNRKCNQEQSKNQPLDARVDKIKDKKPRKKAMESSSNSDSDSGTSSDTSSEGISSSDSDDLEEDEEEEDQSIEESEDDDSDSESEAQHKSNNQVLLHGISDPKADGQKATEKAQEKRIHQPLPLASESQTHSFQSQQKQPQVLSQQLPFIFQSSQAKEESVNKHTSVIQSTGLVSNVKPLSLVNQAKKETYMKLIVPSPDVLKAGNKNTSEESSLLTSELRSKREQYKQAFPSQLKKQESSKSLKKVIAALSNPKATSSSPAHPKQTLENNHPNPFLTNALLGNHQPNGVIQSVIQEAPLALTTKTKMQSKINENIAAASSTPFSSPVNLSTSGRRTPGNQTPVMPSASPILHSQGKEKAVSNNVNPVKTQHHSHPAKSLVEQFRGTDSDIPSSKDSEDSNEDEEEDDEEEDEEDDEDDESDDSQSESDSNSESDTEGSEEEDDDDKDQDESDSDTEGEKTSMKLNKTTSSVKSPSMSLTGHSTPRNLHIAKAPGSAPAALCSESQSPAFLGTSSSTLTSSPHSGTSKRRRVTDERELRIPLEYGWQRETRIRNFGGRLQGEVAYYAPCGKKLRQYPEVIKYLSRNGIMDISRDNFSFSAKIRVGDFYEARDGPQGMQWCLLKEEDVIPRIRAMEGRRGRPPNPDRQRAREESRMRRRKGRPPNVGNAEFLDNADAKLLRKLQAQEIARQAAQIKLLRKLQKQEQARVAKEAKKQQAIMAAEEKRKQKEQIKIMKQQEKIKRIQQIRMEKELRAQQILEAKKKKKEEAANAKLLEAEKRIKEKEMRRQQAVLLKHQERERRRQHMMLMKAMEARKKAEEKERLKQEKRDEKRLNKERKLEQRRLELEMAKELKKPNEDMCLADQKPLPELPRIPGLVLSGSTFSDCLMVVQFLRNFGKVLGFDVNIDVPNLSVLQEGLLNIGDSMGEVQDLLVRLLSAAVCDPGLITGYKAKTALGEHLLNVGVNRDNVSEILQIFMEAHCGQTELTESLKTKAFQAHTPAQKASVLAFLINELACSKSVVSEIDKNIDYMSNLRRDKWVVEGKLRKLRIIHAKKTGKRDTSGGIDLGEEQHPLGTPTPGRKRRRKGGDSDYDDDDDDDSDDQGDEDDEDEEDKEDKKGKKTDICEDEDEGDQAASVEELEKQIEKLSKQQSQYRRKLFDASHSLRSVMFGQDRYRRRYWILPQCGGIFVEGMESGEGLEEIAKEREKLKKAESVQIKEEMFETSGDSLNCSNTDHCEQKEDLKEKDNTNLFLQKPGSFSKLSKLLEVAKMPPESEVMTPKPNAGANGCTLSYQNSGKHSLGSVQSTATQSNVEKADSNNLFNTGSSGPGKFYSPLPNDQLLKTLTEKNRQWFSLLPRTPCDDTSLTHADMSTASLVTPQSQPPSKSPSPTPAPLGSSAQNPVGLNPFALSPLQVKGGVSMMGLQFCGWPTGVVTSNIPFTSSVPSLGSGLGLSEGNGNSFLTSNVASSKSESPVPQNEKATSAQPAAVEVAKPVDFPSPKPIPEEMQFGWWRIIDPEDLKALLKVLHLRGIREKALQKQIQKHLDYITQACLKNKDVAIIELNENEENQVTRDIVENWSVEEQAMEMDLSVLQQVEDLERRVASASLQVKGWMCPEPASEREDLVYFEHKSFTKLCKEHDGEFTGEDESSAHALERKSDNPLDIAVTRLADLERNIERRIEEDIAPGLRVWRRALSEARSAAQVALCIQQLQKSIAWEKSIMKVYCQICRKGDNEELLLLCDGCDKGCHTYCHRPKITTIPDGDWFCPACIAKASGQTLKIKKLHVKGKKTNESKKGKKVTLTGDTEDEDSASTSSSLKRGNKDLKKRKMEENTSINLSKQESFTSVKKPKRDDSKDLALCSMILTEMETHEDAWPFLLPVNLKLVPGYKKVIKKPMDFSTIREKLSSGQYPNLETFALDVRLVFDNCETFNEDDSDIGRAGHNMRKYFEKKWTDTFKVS
# experimental_details: qHTS Assay for Inhibitors of BAZ2B; also: nearly all actives have a fitted effect of over 60% in size
# protocol_conditions: AlphaScreen BAZ2B-H3K14Ac peptide displacement; series mostly up to 114 µM
The whole screen tested about 360,000 compounds, of which about 16,000 (4.4%) were called active. Another 9% or so got no clear call; they are omitted. Calls follow the shape of the dose curve; as a rule, active = well fitted inhibition curve with a large enough effect; inconclusive = small, poorly fitted or top-dose-only effect; inactive = no such curve, though single readings can be large or run the other way. The list comes from a sample in which actives are over-represented; it also holds close analogues and randomly drawn compounds.
# output must be one of yes = active, no = inactive

Solved entries (count: 5):
>>> label_value("CCC(=O)Nc1ccccc1-c1nc2ccccc2n(CC(=O)Nc2ccc(C)c(C)c2)c1=O")
"no"
>>> label_value("COc1cc(NS(=O)(=O)c2ccc3c(c2)OCC(C(=O)N2CCCC2)O3)cc(OC)c1 (stereo unspecified)")
"no"
>>> label_value("CC(=O)N1CCN(CC(=O)Nc2ccc(C)c(F)c2)CC1")
"yes"
>>> label_value("CCOC(=O)c1scc(-c2ccc(C)cc2)c1S(=O)(=O)Nc1cc(C)ccc1C")
"no"
>>> label_value("CC(=O)N1CCN(CC(=O)Nc2ccc(SC(F)F)cc2)CC1")
"no"

Lab note: next compound to report on.
Input: Please indicate how the test categorized Cc1ccc(-c2nnc(Nc3cccc(Br)c3)c3ccccc23)cc1S(=O)(=O)NCC1CCCO1 (stereo unspecified) .
Output: no

###

# target_system: Bromodomain adjacent to zinc finger domain protein 2B (Homo sapiens) (UniProt Q9UIF8)
# experimental_details: qHTS Assay for Inhibitors of BAZ2B; also: nearly all actives have a fitted effect of over 60% in size
# protocol_conditions: AlphaScreen BAZ2B-H3K14Ac peptide displacement; series mostly up to 114 µM
Out of some 360,000 compounds screened, about 16,000 (4.4%) were called active. Not shown: some 9% with an inconclusive outcome. Calls follow the shape of the dose curve; as a rule, active = well fitted inhibition curve with a large enough effect; inconclusive = small, poorly fitted or top-dose-only effect; inactive = no such curve, though single readings can be large or run the other way. Only a selection was taken, and actives are over-represented in it overall.
# output must be one of T for active, F for inactive

Solved entries (count: 5):
>>> label_value("N#Cc1c(-c2ccccc2)c(-c2ccccc2)n[nH]c1=O")
"F"
>>> label_value("CCCn1c(=N)c(C(=O)NCc2ccccc2)cc2c(=O)n3cccc(C)c3nc21")
"F"
>>> label_value("CC1=NN(c2ccccc2)C(=O)C1C(=O)c1ccc([N+](=O)[O-])cc1 (stereo unspecified)")
"F"
>>> label_value("O=C(O)c1n[nH]nc1-c1ccccc1")
"T"
>>> label_value("COc1ccc2[nH]cc(CCN3C(=O)c4ccc(C(=O)O)cc4C3=O)c2c1")
"F"

Lab note: next compound to report on.
Input: Please indicate how the test categorized O=c1[nH]n(-c2ccc([N+](=O)[O-])cc2)c(=O)c2ccccc12 .
Output: F

###

# target_system: Bromodomain adjacent to zinc finger domain protein 2B (Homo sapiens) (UniProt Q9UIF8)
# experimental_details: qHTS Assay for Inhibitors of BAZ2B; also: nearly all actives have a fitted effect of over 60% in size
# protocol_conditions: AlphaScreen BAZ2B-H3K14Ac peptide displacement; series mostly up to 114 µM
Hit rate of the full screen: of about 360,000 compounds, about 16,000 (4.4%) were called active. About 9% were inconclusive and are not listed. Calls follow the shape of the dose curve; as a rule, active = well fitted inhibition curve with a large enough effect; inconclusive = small, poorly fitted or top-dose-only effect; inactive = no such curve, though single readings can be large or run the other way. The full list was thinned out, with actives kept by preference.
# output must be one of active, inactive

Input: Please indicate how the test categorized Cn1c(COc2ccc(Cl)cc2)nc2ccccc2c1=O .
Output: active

###

# target_system: Bromodomain adjacent to zinc finger domain protein 2B (Homo sapiens)
# experimental_details: qHTS Assay for Inhibitors of BAZ2B; also: nearly all actives have a fitted effect of over 60% in size
# protocol_conditions: AlphaScreen BAZ2B-H3K14Ac peptide displacement; series mostly up to 114 µM
The whole screen tested about 360,000 compounds, of which about 16,000 (4.4%) were called active. Another 9% or so got no clear call; they are omitted. For the sample, actives were picked, then their nearest neighbours and some compounds at random.
assay_readout: outcome

>>> value_reported("CCOc1ccc(OCC)c(NC(=O)c2cc(C)nc3c2c(C)nn3-c2cccc(Cl)c2C)c1")
"inactive"
>>> value_reported("COc1cccc(OC)c1OCCN1CCN(C(=O)c2ccco2)CC1")
"inactive"
>>> value_reported("CN1CCN(C2(CNC(=O)COc3ccc(C(C)(C)C)cc3)CCCCC2)CC1")
"inactive"
>>> value_reported("COc1ccc(CCNS(=O)(=O)c2cc(-c3cc(C)no3)ccc2C)cc1OC")
"inactive"

Input: Any idea what outcome came out for O=C(Cn1c(=O)n(-c2ccc(F)cc2)c(=O)c2sccc21)Nc1cccc(C(F)(F)F)c1 on Bromodomain adjacent to zinc finger domain protein 2B (Homo sapiens)?
Output: inactive

###

# target_system: Bromodomain adjacent to zinc finger domain protein 2B (Homo sapiens) (UniProt Q9UIF8)
# experimental_details: qHTS Assay for Inhibitors of BAZ2B; also: nearly all actives have a fitted effect of over 60% in size; also: potency is read from the fitted curve at half-maximal effect
# protocol_conditions: AlphaScreen BAZ2B-H3K14Ac peptide displacement; series mostly up to 114 µM
Screen size: about 360,000 compounds; about 16,000 (4.4%) were called active. About 9% were inconclusive and are not listed. The sample as a whole holds a higher share of actives than the screen did.
assay_readout: Potency

A selection of reference data follows.
>>> value_reported("Cc1ccc2nc(CN3CCN(S(=O)(=O)c4ccc(C)c(C)c4)CC3)oc2c1")
"inactive"
>>> value_reported("COc1ccc(OC)c(NC(=O)CN(C)CCOc2ccc(Br)cc2)c1")
"inactive"
>>> value_reported("CCS(=O)(=O)c1nc(S(=O)(=O)c2ccc(C)cc2)c(NCc2ccc(Cl)cc2)s1")
"inactive"
>>> value_reported("Oc1cccc(/C=N/Nc2ccc(Cl)nn2)c1O")
"8.91 µM (active)"
>>> value_reported("CN(C)CCOC1c2ccccc2-c2ccccc21")
"inactive"

Now turn to the next compound.
Input: Look up Potency: CN(C)CCOc1cccc(Br)c1
Output: 44.7 µM (active)

###

# target_system: Bromodomain adjacent to zinc finger domain protein 2B (Homo sapiens) (UniProt Q9UIF8)
# experimental_details: qHTS Assay for Inhibitors of BAZ2B; also: nearly all actives have a fitted effect of over 60% in size
# protocol_conditions: AlphaScreen BAZ2B-H3K14Ac peptide displacement; series mostly up to 114 µM
In all, about 360,000 compounds went through this assay and about 16,000 (4.4%) were called active. Inconclusive results (about 9%) are left out. Calls follow the shape of the dose curve; as a rule, active = well fitted inhibition curve with a large enough effect; inconclusive = small, poorly fitted or top-dose-only effect; inactive = no such curve, though single readings can be large or run the other way. This is one part of a sample in which actives are shown more often than they occur.
# output must be one of active, inactive

Solved entries (count: 8):
>>> label_value("OCc1cnc(SCc2ccc(F)cc2)n1Cc1ccc(F)cc1")
"inactive"
>>> label_value("Cc1cccc(NC(=S)NCCN(C2CCCCC2)C2CCCC2)c1")
"inactive"
>>> label_value("CCc1ccc(NC(=O)CCS(=O)(=O)c2cc3c(cc2Cl)NC(=O)CO3)cc1")
"inactive"
>>> label_value("CN(C)/N=C/c1cc(Cl)cc([N+](=O)[O-])c1O")
"active"
>>> label_value("COC(=O)c1ccc(COc2ccc(/C=C/C(=O)c3ccc(OC)c(CSCC(=O)O)c3)cc2OC)cc1")
"active"
>>> label_value("Cc1cc(/C=C2/NC(=O)NC2=O)c(C)n1-c1cccnc1")
"inactive"
>>> label_value("CCC(=O)OCCNc1nc(-c2ccccc2)nc2ccccc12")
"inactive"
>>> label_value("Cc1cccc(N2CCN(c3ccc(NC(=O)/C=C\\C(=O)O)cc3)CC2)c1")
"active"

Input: Please indicate how the test categorized COc1ccccc1CNC(=O)CCCCn1c(=O)c2ccccc2n(CC(=O)Nc2cc(Cl)ccc2C)c1=O .
Output: inactive

Input: Another molecule: CC(=O)N/N=C/c1cc2c(cc1[N+](=O)[O-])OCO2
Output: inactive

Input: Another molecule: Cc1ccc(Cl)cc1N1CCN(C(=O)C2CCC(CNS(=O)(=O)c3cccs3)CC2)CC1 (configuration not stated)
Output: inactive

Input: Another molecule: CN(C)c1ccc(Nc2c3c4c(cccc4n(C)c2=O)C(=O)c2ccccc2-3)cc1
Output: active

Input: Another molecule: Cc1ccc(NC(=O)c2cc3ccccc3o2)cc1
Output: inactive

Input: Another molecule: Cc1nc(Nc2ccc3c(c2)OCCO3)c2nnn(Cc3ccccc3Cl)c2n1
Output: inactive

###

# target_system: Bromodomain adjacent to zinc finger domain protein 2B (Homo sapiens) (UniProt Q9UIF8)
# experimental_details: qHTS Assay for Inhibitors of BAZ2B; also: nearly all actives have a fitted effect of over 60% in size
# protocol_conditions: AlphaScreen BAZ2B-H3K14Ac peptide displacement; series mostly up to 114 µM
Hit rate of the full screen: of about 360,000 compounds, about 16,000 (4.4%) were called active. Not shown: some 9% with an inconclusive outcome. The call rests on the fitted dose curve; in most records, active means well fitted inhibition curve with a large enough effect; inconclusive means small, poorly fitted or top-dose-only effect; inactive means no such curve, though single readings can be large or run the other way. The entries come from a sample that favours actives as a whole.
# output must be one of true (1) for active, false (0) for inactive

>>> label_value("CCCC(c1nnnn1C(C)(C)C)N1CCN(Cc2ccccc2)CC1 (stereo not given)")
"false (0)"
>>> label_value("COc1cc(OC)cc(C(=O)OCC(=O)Nc2ccc(F)cc2F)c1")
"false (0)"

Input: Please indicate how the test categorized COc1ccccc1C(=O)Nc1c(C(=O)N(C)Cc2ccccc2)sc2nc(C)c(Cl)c(C)c12 .
Output: false (0)

Input: Another compound: CC1CCN(S(=O)(=O)c2ccc3c(c2)N(CC(=O)NCCc2ccccc2)C(=O)CO3)CC1
Output: false (0)

Input: Another compound: COc1cc(N2CCCC2)c(OC)cc1/C=C(/C#N)c1cccc(Br)c1
Output: true (1)

Input: Another compound: CCc1ccc(NC(=O)CCCc2nnc3n(CCCOC)c(=O)c4sccc4n23)cc1
Output: false (0)

Input: Another compound: CC(C)C(c1nnnn1Cc1ccccc1)N1CCC(C(N)=O)CC1 (stereo not given)
Output: false (0)

Input: Another compound: O=C(NCCc1ccccc1)c1ccc2c(c1)N(Cc1ccccc1)C(=O)c1ccccc1S2(=O)=O
Output: false (0)

Input: Another compound: COc1ccc(S(=O)(=O)c2c(Nc3cccc(Cl)c3)sc(C(=O)c3ccccc3)c2N)cc1
Output: false (0)

Input: Another compound: CCn1c(=O)c(=O)n(CC)c2cc(N3CCCCC3)c(NC(=O)c3cccc(F)c3)cc21
Output: false (0)
